Assay: Visible absorption spectrum (λmax, ε)
Assay type: physicochemical
Conditions: in chloroform, at λ max; in M-1 cm-1 (unit assumed)
experimental endpoint: ε

* CCCCCCCCSc1c(F)c2c(c(F)c1SCCCCCCCC)C(=O)c1c(O)ccc(O)c1C2=O [(304)] | 14600
* CCCCNc1c(F)c2c(c(F)c1Nc1ccc(OC)cc1)C(=O)c1c(O)ccc(O)c1C2=O [(228)] | 22800
* COc1cccc(Nc2c(F)c(F)c3c(c2F)C(=O)c2c(O)ccc(O)c2C3=O)c1 [(16)] | 16300
* CCCCOC(=O)c1ccccc1Nc1c(F)c(F)c2c(c1F)C(=O)c1c(O)ccc(O)c1C2=O [(5)] | 8600
* O=C1c2c(O)ccc(O)c2C(=O)c2c(F)c(Sc3ccc(O)cc3)c(Sc3ccc(O)cc3)c(F)c21 [(301)] | 12900
* O=C1c2c(O)ccc(O)c2C(=O)c2c(Nc3ccccc3)c(Sc3ccccc3)c(Sc3ccccc3)c(Nc3ccccc3)c21 [(297)] | 15900
* CCc1cccc(CC)c1Nc1c(F)c2c(c(F)c1Nc1c(CC)cccc1CC)C(=O)c1c(O)ccc(O)c1C2=O [(137)] | 3000
* O=C1c2c(O)ccc(O)c2C(=O)c2c(F)c(Nc3c(Cl)cccc3Cl)c(F)c(F)c21 [(22)] | 9470
* COc1ccc(Nc2c(F)c3c(c(F)c2Nc2ccc(OC)cc2)C(=O)c2c(O)ccc(O)c2C3=O)cc1 [(132)] | 13400
* CCCCOC(=O)c1ccc(Nc2c(F)c(F)c3c(c2F)C(=O)c2c(O)ccc(O)c2C3=O)cc1 [(6)] | 17900
* CCCCCCCCOc1c(F)c2c(c(F)c1Nc1cccc(C(=O)OCC)c1)C(=O)c1c(O)ccc(O)c1C2=O [(34)] | 12400
